Where these numbers come from: patent US11306092B2

Reported pIC50 is given for each of the following molecules.
Target: human TLR9 (Homo sapiens, UniProt Q9NR96)
Sequence (Q9NR96 26-1032): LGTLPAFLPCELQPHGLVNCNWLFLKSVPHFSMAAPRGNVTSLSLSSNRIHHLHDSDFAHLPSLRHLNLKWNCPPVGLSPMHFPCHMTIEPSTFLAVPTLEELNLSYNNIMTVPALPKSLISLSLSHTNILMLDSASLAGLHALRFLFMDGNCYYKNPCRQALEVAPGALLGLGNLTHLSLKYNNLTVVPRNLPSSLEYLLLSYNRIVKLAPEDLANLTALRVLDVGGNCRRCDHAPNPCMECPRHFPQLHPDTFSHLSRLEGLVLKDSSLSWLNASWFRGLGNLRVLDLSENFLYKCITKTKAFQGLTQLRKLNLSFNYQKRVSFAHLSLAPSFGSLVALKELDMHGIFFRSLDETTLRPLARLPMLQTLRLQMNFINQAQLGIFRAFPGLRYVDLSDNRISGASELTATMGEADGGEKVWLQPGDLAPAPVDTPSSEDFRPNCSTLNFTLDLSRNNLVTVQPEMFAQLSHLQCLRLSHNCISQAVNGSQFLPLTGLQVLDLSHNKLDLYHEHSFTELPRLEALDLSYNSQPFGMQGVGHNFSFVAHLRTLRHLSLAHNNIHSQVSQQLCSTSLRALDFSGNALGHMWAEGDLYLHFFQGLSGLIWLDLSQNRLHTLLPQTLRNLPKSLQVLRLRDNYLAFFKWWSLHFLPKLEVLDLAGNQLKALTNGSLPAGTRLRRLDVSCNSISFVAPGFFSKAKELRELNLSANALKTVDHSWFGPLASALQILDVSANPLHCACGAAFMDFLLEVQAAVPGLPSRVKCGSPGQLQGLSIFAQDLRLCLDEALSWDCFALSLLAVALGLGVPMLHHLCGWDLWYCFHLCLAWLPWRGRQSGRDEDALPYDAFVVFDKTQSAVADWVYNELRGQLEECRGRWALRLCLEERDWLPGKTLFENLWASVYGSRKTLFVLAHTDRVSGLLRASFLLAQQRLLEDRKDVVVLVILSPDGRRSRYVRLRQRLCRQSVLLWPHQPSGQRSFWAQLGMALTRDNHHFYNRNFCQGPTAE
Assay: TLR9 inhibition reporter assay (HEK-Blue SEAP reporter)
Conditions: HEK-Blue cells overexpressing human TLR9; ODN2006 5 nM; 22 hour incubation
pIC50: −log10 of the molar value.
propertyLabel: pIC50

{"molecule": "COc1ccc(-c2[nH]c3ccc(N4CCC(NC5CCN(C(C)=O)CC5)CC4)cc3c2C(C)C)cc1OC [Example 89]", "propertyLabel": "pIC50", "assayResult": 5.70}
{"molecule": "COc1ccc(-c2[nH]c3ccc(N4CCC(N5CCOCC5)CC4)cc3c2C(C)C)cc1OC [Example 74]", "propertyLabel": "pIC50", "assayResult": 5.28}
{"molecule": "CCc1c(-c2ccc(OC)c(OC)c2)[nH]c2cc(C)c(N3CCC4(CC3)CCN(C(C)C)CC4)cc12 [Example 186]", "propertyLabel": "pIC50", "assayResult": 5.54}
{"molecule": "CCN1CCCN(C2CCN(c3ccc4[nH]c(-c5ccc(OC)c(OC)c5)c(C(C)C)c4c3)CC2)CC1 [Example 84]", "propertyLabel": "pIC50", "assayResult": 6.00}
{"molecule": "COc1ccc(-c2[nH]c3ccc(N4CCC(CCN(C)C)CC4)cc3c2C(C)C)cc1OC [Example 71]", "propertyLabel": "pIC50", "assayResult": 6.22}
{"molecule": "COc1ccc(-c2[nH]c3ccc(NC4CCC(NCCCN5CCOCC5)CC4)cc3c2C(C)C)cc1OC (stereo not drawn) [Example 56]", "propertyLabel": "pIC50", "assayResult": 6.23}
{"molecule": "CNCCN1CCN(c2ccc3[nH]c(-c4ccnc5[nH]ccc45)c(C(C)C)c3c2)CC1 [Example 138]", "propertyLabel": "pIC50", "assayResult": 6.03}
{"molecule": "COc1ccc(-c2[nH]c3ccc(NC4CCC(N5CCN(CCCN6CCCC6)CC5)CC4)cc3c2C(C)C)cc1OC (stereo not drawn) [Example 67]", "propertyLabel": "pIC50", "assayResult": 6.23}
{"molecule": "COc1ccc(-c2[nH]c3ccc(N4CCC(N5CCCC5)CC4)cc3c2C(C)C)cc1OC [Example 70]", "propertyLabel": "pIC50", "assayResult": 5.77}
{"molecule": "COc1ccc(-c2[nH]c3ccc(NC4CCC(NCCCN5CCOCC5)CC4)cc3c2C(C)C)cc1OC (stereo not drawn) [Example 55]", "propertyLabel": "pIC50", "assayResult": 6.20}
{"molecule": "CCN1CCC(N2CCN(c3ccc4[nH]c(-c5ccc(OC)c(OC)c5)c(C)c4c3)CC2)CC1 [Example 155]", "propertyLabel": "pIC50", "assayResult": 6.35}
{"molecule": "CCc1c(-c2ccnc(C)c2)[nH]c2ccc(N3CCN(C4CCN(CC(C)C)CC4)CC3)cc12 [Example 152]", "propertyLabel": "pIC50", "assayResult": 6.47}
{"molecule": "CCc1c(-c2ccc(OC)c(OC)c2)[nH]c2ccc(N3CCN(C4CCN(C)CC4)CC3(C)C)cc12 [Example 172]", "propertyLabel": "pIC50", "assayResult": 6.32}
{"molecule": "COc1ccc(-c2[nH]c3ccc(N4CCC(OC5CCN(C)CC5)CC4)cc3c2C(C)C)cc1OC [Example 187]", "propertyLabel": "pIC50", "assayResult": 5.84}
{"molecule": "Cc1cc(-c2[nH]c3ccc(N4CCC(N(C)CCN)C4=O)cc3c2C(C)C)ccn1 (stereo not drawn) [Example 2]", "propertyLabel": "pIC50", "assayResult": 5.30}
